# key: entry, value: K
# MEASUREMENT TARGET: Adenosine receptor A3 (Homo sapiens)
# TEST SUMMARY: Displacement of [3H]PSB-11 from human adenosine A3 receptor expressed on CHO cell membranes assessed as dissociation rate constant after 120 mins by scintillation spectrometry
OBSERVED PROPERTY: K (×10⁻⁴ /s)

In [3]: df
Out[3]:
                               given_smiles  value_unit  experimental_value
0  CCCCCn1c(=O)c2c(nc3cc(OC)ccn32)n(Cc2ccccc2)c1=O    ×10⁻⁴ /s                   6
1  COc1ccn2c(c1)nc1c2c(=O)n(CC2CC2)c(=O)n1Cc1ccc(Cl)cc1    ×10⁻⁴ /s                 8.2
2  COCCn1c(=O)c2c(nc3cc(OC)ccn32)n(Cc2ccccc2)c1=O    ×10⁻⁴ /s                 6.3
3  COc1ccn2c(c1)nc1c2c(=O)n(CC2CC2)c(=O)n1Cc1cccc(Cl)c1    ×10⁻⁴ /s                 4.7

Hello, the source for this data is ChEMBL document CHEMBL4017497, in case you need it.
